- ASSAY_SYSTEM: T1, human TfR ectodomain fused to a mouse IgG1 Fc fragment (human, UniProt P02786 89-760)
- T1 construct: extracellular domain; ectodomain fused to the N-terminal end of the Fc, made in-house; not shown: mouse IgG1 Fc fragment
- T1 sequence (P02786 89-760): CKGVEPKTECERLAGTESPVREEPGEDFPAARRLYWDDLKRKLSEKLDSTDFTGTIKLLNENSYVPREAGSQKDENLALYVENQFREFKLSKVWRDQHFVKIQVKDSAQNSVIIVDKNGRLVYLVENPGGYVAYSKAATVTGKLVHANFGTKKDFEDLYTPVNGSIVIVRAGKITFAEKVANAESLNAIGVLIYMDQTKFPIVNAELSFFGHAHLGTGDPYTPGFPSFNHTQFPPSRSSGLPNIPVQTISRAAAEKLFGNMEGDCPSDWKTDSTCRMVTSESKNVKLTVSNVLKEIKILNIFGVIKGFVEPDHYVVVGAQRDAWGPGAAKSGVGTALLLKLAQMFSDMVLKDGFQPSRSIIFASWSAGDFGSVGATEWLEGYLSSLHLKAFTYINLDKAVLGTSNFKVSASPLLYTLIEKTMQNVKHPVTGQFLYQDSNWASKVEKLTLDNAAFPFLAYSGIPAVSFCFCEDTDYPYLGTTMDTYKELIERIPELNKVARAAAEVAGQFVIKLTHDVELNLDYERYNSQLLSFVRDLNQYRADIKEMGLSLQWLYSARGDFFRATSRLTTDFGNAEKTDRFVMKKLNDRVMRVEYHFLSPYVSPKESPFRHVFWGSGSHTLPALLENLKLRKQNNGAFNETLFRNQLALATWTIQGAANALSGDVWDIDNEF
- PROTOCOL: SPR, kinetic
PROPERTY: Kd (µM)
Respond with the bare value in µM.

Fill blank: measured Kd of the binder B8^V32 (VHH) VHH: EVQLVESGGGVVQPGGSLRLSCAASGEIRSINFMRWYRQAPGKQREWVAGFTRDGSTNYPDSAKGRFTISRDNAKNTVYLQIDSLKPEDTAVYYCYMLDTWGQGTQVTVSS is ____.
0.0301

Quick one: C5^V13h20 (VHH) VHH: EVQLVESGGGVVQPGGSLRLSCAASGTDFSINFIRWYRQAPGKGLEFVAGFSATGNTNYADSVKGRFTISRDNAKNAVYLQMNSLRPEDTAVYYCYMLDKWGQGTQVTVSS
0.00455
